molecular target: UniProtKB Q9H228; test: Agonist activity at recombinant human S1PR5 expressed in CHO cell membranes assessed as [35S]GTP-gammaS binding measured after 1.5 hrs by TopCount scintillation counting method relative to S1P
Sequence (Q9H228 whole entry): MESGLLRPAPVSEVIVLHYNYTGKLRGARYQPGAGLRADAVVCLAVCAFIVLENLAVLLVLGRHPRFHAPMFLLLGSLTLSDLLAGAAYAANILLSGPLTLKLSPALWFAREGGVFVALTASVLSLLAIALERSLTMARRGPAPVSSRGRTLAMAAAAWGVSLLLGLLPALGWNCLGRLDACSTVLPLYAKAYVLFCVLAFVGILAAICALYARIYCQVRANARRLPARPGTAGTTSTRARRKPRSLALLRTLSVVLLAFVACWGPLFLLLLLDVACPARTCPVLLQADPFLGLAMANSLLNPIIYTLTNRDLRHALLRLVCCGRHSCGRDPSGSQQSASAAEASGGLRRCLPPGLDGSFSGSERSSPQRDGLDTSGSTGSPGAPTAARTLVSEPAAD
Response key: Met means Efficacy >= 30%; Not met means Efficacy < 30%.

CC(CNCc1cc2cccc(-c3ccc4ccccc4c3)c2s1)C(=O)O (stereo unspecified); Met
CC(C)(C)c1ccc(-c2cccc3cc(CNCCCC(=O)O)sc23)cc1; Not met
O=C(O)CNCc1cc2cccc(-c3ccc4ccccc4c3)c2s1; Met
CCc1ccccc1-c1cccc2cc(CNCC(C)C(=O)O)sc12 (stereo unspecified); Not met
O=C(O)CCCNCc1cc2cccc(-c3ccc4ccccc4c3)c2s1; Not met

From here, focus on the item given below.
Record Cc1cccc(-c2cccc3cc(CNCCCC(=O)O)sc23)c1 ; criterion: Efficacy no lower than 30%. Met?
Not met

Source: ChEMBL document CHEMBL3875189
